Origin of the recorded values: the supplement of paper PMC10307832

system: NCI-H2087; assay: relative viability (nuclei count vs DMSO), 5 days (fraction); higher = more cells survive; details: first compound 2 µM
I'd appreciate it if you could supply relative viability values for the items below.
I'd appreciate a reply containing only the number, no unit.

Incoming: Tell us which relative viability value is on record for COCC1(CO)C(=O)C2CCN1CC2 (stereo not given) [PRIMA-1MET] + N=C(N)NC(=N)NCCc1ccccc1 [Phenformin] (partner 250 µM)
Outgoing: 0.494

Incoming: Tell us which relative viability value is on record for COCC1(CO)C(=O)C2CCN1CC2 (stereo not given) [PRIMA-1MET] + CCNC(=O)c1noc(-c2cc(C(C)C)c(O)cc2O)c1-c1ccc(CN2CCOCC2)cc1 [Luminespib] (partner 0.01 µM)
Outgoing: 0.153

Incoming: Tell us which relative viability value is on record for COCC1(CO)C(=O)C2CCN1CC2 (stereo not given) [PRIMA-1MET] + CS(=O)(=O)CCNCc1ccc(-c2ccc3ncnc(Nc4ccc(OCc5cccc(F)c5)c(Cl)c4)c3c2)o1 [Lapatinib] (partner 2 µM)
Outgoing: 0.848

Incoming: Tell us which relative viability value is on record for COCC1(CO)C(=O)C2CCN1CC2 (stereo not given) [PRIMA-1MET] + CC(=O)Nc1cccc(-n2c(=O)n(C3CC3)c(=O)c3c(Nc4ccc(I)cc4F)n(C)c(=O)c(C)c32)c1 [Trametinib] (partner 0.02 µM)
Outgoing: 0.19

Incoming: Tell us which relative viability value is on record for COCC1(CO)C(=O)C2CCN1CC2 (stereo not given) [PRIMA-1MET] + CC(C)C[C@H](NC(=O)[C@H](Cc1ccccc1)NC(=O)c1cnccn1)B(O)O [Bortezomib] (partner 0.002 µM)
Outgoing: 0.795
